Target: Cannabinoid receptor 2 (Homo sapiens, UniProt P34972)
Sequence (P34972 whole entry): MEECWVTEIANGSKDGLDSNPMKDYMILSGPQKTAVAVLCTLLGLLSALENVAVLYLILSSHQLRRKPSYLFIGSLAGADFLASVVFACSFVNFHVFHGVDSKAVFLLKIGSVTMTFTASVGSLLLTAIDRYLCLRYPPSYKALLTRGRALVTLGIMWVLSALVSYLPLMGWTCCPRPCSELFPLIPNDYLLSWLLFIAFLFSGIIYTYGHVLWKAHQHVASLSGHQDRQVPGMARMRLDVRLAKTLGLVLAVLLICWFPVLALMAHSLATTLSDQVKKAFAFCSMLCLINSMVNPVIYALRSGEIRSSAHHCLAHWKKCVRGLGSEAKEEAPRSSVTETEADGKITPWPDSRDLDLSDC
Assay: Antagonist activity at CB2 receptor (unknown origin) stably expressed in CHO cells co-expressing co-expressing Ga15/16 assessed as calcium current at 10 uM after 45 mins by fluo-4 AM assay relative to basal control
Format: functional, cell-based
assay_metric: inhibition (%)
Report the value in % with no unit label.

Previously resolved entries follow.
Cc1ccc(-n2c(-c3ccc(Cl)cc3)nn(C(=O)NC3CCCCC3)c2=O)cc1    46.4
COc1ccc(-n2c(-c3ccc(Cl)cc3)nn(C(=O)NC3CCCCC3)c2=O)cc1    94
Cc1ccc(Cn2c(-c3ccc(C)cc3)nn(C(=O)NC3CCCCC3)c2=O)cc1    132
Cc1ccc(Cn2c(-c3ccc(C)cc3)nn(C(=O)Nc3ccc(Cl)cc3)c2=O)cc1    29.9
Cc1ccc(Cn2c(-c3ccc(Cl)cc3)nn(C(=O)NC3CCCCC3)c2=O)cc1    87.7
COc1ccc(-c2nn(C(=O)Nc3ccc(C)cc3)c(=O)n2-c2ccc(Cl)cc2)cc1    74
CCCCCOc1c(OC)ccc2cc(C(=O)NCc3ccc4c(c3)OCO4)c(=O)[nH]c12    130
COc1ccc(-c2nn(C(=O)NC3CCCCC3)c(=O)n2-c2ccc(C)cc2)cc1    131

[in] // returns reported inhibition for input `Cc1ccc(-c2nn(C(=O)NC3CCCCC3)c(=O)n2-c2ccc(Cl)cc2)cc1`
[out] 58.5

[in] // returns reported inhibition for input `COc1ccc(-n2c(-c3ccc(Cl)cc3)nn(C(=O)Nc3ccc(C)cc3)c2=O)cc1`
[out] 85.6

[in] // returns reported inhibition for input `COc1ccc(-c2nn(C(=O)NC3CCCCC3)c(=O)n2-c2ccc(Cl)cc2)cc1`
[out] 124

[in] // returns reported inhibition for input `COc1ccc(-c2nn(C(=O)Nc3ccc(Cl)cc3)c(=O)n2-c2ccc(C)cc2)cc1`
[out] 43.6
